Experiment: Ovalbumin-induced systemic edema method
Format: in vivo
Details: rat, 100 mg/kg orally, one hour prior to and simultaneously with ovalbumin; 2 hours
Method: b. Ovalbumin-induced systemic edema method Rats are administered a simultaneous intraperitoneal injection of 1 ml ovalbumin and 0.5 ml of a 1% aqueous Evans Blue solution. On the other hand, the animals of the treated lot are administered orally 100 mg/kg of the test derivative, one hour prior to and simultaneously with the ovalbumin administration. […] Thus are determined the average intensity of the edema and the percent decrease of the edematous reaction with respect to the controls.
# Percent decrease (edematous reaction) after two hours per entry
I only need the number, in %, no unit after it.

Use these answered entries as a reference point.
OC1CNCc2ccsc21 (stereo not drawn)	54
CCC1NCC(O)c2sccc21 (stereo not drawn)	49
OC1CNCc2sccc21 (stereo not drawn)	56
CC1NCC(O)c2sccc21 (stereo not drawn)	52
CCC1NCC(O)c2ccsc21 (stereo not drawn)	54

Input line: Entry CC1NCC(O)c2ccsc21 (stereo not drawn) has what Percent decrease (edematous reaction) after two hours?
Output line: 45

----------
Percent anti-inflammatory activity after 1 hour: recorded values
test: Carrageenin-induced localized edema method; type: in vivo; conditions: rat, 100 mg/kg orally per administration, 1 hour after carrageenin
Lab book: enter the figure in %, no units written.

Examples with their reported Percent anti-inflammatory activity after 1 hour follow.
OC1CNCc2ccsc21 (stereo not drawn)	41
CC1NCC(O)c2ccsc21 (stereo not drawn)	38
CCC1NCC(O)c2sccc21 (stereo not drawn)	39

Input line: If you can, please state the reported Percent anti-inflammatory activity after 1 hour value of CC1NCC(O)c2sccc21 (stereo not drawn) .
Output line: 41

Input line: Then CCC1NCC(O)c2ccsc21 (stereo not drawn) ?
Output line: 43

Input line: # iterate: OC1CNCc2sccc21 (stereo not drawn)
Output line: 43

----------
experiment: Mechanical stimulation method according to Haffner; format: in vivo; settings: mouse, 100 mg/kg orally, after 2 hrs
Property Name: Average percent antalgic activity after 2 hrs (%)
Express it in %; write the number only.

CCC1NCC(O)c2ccsc21 (stereo not drawn) [Derivative 4]	60
CC1NCC(O)c2sccc21 (stereo not drawn) [Derivative 5]	61

We next turn to a different compound, shown below.
Input line: Need Average percent antalgic activity after 2 hrs, item OC1CNCc2sccc21 (stereo not drawn) [Derivative 2]
Output line: 60

Where do these numbers come from? They come from patent US3983125A.
